test system: MCF7; test: Cytotoxicity against human MCF7 cells after 48 hrs by sulforhodamine B assay; format: functional; details: MCF7, 48 h
Assay metric: TGI

# batch size: 4; output TGI per entry
1. O=C1C=CC[C@@H](/C=C/c2ccccc2)O1
2. COc1cccc2c1C(=O)c1c(O)c3c(c(O)c1C2=O)C[C@@](O)(C(=O)CO)C[C@@H]3O[C@H]1C[C@H](N)[C@H](O)[C@H](C)O1 [DOXORUBICIN]
3. O=C1C=CC[C@H](/C=C/c2ccccc2)O1 [GONIOTHALAMIN]
4. O=C1C=CCC(/C=C/c2ccccc2)O1 (racemic)

Response line:
77 µM
11 µM
21.7 µM
22.7 µM

// data source = ChEMBL document CHEMBL1240522
